System: HeLa Kyoto;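 also: synchronized HeLa Kyoto cells, proteins quantified by TMT10plex mass spectrometry, three biological replicates, mitosis taken 0.5 h after nocodazole release, G1/S directly after double thymidine block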
Assay: thermal stability score vs G1/S (z-score of summed log2 fold changes over temperatures); higher = more thermally stable than in G1/S
Details: cell cycle stage: early G1 (4.5 h after nocodazole release)
Each entry gets class 0 if its thermal stability score stays under -0.8, and class 1 if its thermal stability score is -0.8 or above.

Determine whether this sequence has thermal stability score no lower than -0.8: MLPLLRCVPRVLGSSVAGLRAAAPASPFRQLLQPAPRLCTRPFGLLSVRAGSERRPGLLRPRGPCACGCGCGSLHTDGDKAFVDFLSDEIKEERKIQKHKTLPKMSGGWELELNGTEAKLVRKVAGEKITVTFNINNSIPPTFDGEEEPSQGQKVEEQEPELTSTPNFVVEVIKNDDGKKALVLDCHYPEDEVGQEDEAESDIFSIREVSFQSTGESEWKDTNYTLNTDSLDWALYDHLMDFLADRGVDNTFADELVELSTALEHQEYITFLEDLKSFVKSQ [C1QBP]
class 0

Given the entry MKGKEEKEGGARLGAGGGSPEKSPSAQELKEQGNRLFVGRKYPEAAACYGRAITRNPLVAVYYTNRALCYLKMQQHEQALADCRRALELDGQSVKAHFFLGQCQLEMESYDEAIANLQRAYSLAKEQRLNFGDDIPSALRIAKKKRWNSIEERRIHQESELHSYLSRLIAAERERELEECQRNHEGDEDDSHVRAQQACIEAKHDKYMADMDELFSQVDEKRKKRDIPDYLCGKISFELMREPCITPSGITYDRKDIEEHLQRVGHFDPVTRSPLTQEQLIPNLAMKEVIDAFISENGWVEDY [STUB1] , answer whether its thermal stability score meets or surpasses -0.8.
class 1

Does MTAPCPPPPPDPQFVLRGTQSPVHALHFCEGAQAQGRPLLFSGSQSGLVHIWSLQTRRAVTTLDGHGGQCVTWLQTLPQGRQLLSQGRDLKLCLWDLAEGRSAVVDSVCLESVGFCRSSILAGGQPRWTLAVPGRGSDEVQILEMPSKTSVCALKPKADAKLGMPMCLRLWQADCSSRPLLLAGYEDGSVVLWDVSEQKVCSRIACHEEPVMDLDFDSQKARGISGSAGKALAVWSLDWQQALQVRGTHELTNPGIAEVTIRPDRKILATAGWDHRIRVFHWRTMQPLAVLAFHSAAVQCVAFTADGLLAAGSKDQRISLWSLYPRA [GNB1L] have a reported thermal stability score of at least -0.8?
class 1
